Entries and their concentration at 2 h values follow.
Assay: Drug uptake in BALB/c mouse brain at 10 mg/kg, sc measured at 2 hrs by LC-MS/MS analysis
Format: ADME, organism-based
Details: read-out: Drug uptake
parameter: concentration at 2 h (ng/g)

> print(dat)
                                   compound             parameter  value.units  readout.value
1  COc1ccc(/C=N/OCC(=O)N2CC(C)OC(C)C2)cc1OC1CCCC1 (configuration not stated)  concentration at 2 h         ng/g           2.21
2  CC1CN(C(=O)CO/N=C/c2ccc(OC(F)F)c(OC3CCCC3)c2)CC(C)O1 (configuration not stated)  concentration at 2 h         ng/g             96
